- experimentalTarget: T1, WHRN NPDZ12 A64D (UniProt Q9P202 33-377, A64D)
- T1 construct: WHRN, residues 33-377 of UniProtKB Q9P202 with the deafness-related mutation A64D; Mutant made by PCR-based mutagenesis; the ClinVar ids are tied to the mutations by their printed order; source: E. coli BL21 (DE3), purified (Ni2+-NTA, size-exclusion chromatography)
- T1 sequence (looked up): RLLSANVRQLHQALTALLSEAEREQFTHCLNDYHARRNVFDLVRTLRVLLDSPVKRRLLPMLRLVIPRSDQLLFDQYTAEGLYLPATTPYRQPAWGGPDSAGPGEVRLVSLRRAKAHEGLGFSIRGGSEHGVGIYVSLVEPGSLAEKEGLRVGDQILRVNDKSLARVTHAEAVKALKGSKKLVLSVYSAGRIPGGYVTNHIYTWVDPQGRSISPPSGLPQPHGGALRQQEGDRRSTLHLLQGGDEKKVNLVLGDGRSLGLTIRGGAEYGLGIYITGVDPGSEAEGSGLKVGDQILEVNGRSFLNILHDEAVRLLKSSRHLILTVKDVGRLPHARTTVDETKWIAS
- methodDescription: ITC; MicroCal iTC200, 25 °C; 50 mM tris pH 7.5-8.0, 300 mM NaCl, 1 mM DTT, 1 mM EDTA; cell 20–50 µM, syringe 400–800 µM; one-site binding model
- assayConditions: both partners purified
endpoint: Kd

Entry under review: ADGRV1-CT (domain or fragment, UniProt Q8VHN7 6239-6298, looked up, ADGRV1 cytoplasmic region, residues 6239-6298 of UniProtKB Q8VHN7; Named Trx-ADGRV1-CT in SEC-MALS; also called Trx-ADGRV1-CT; VLGR1-CT; source: E. coli BL21 (DE3), purified (Ni2+-NTA, size-exclusion chromatography); not shown: Trx, N-terminal, kept) GSLIADEESQEFDDLIFALKTGAGLSVSDNESGQGSQEGGTLTDSQIVELRRIPIADTHL . Reported Kd?
410 nM
